Data provenance is patent US10457709B2.

System: Serratia marcescens clinical strains
Type: cell-based
Design: unit: μg/ml
condition: Serratia marcescens clinical strain 5; microdilution, Muller Hinton broth-cation adjusted, 0.02% BSA, 0.2% acetic acid
Square brackets hold non-standard residues; d marks the D form. Peptide text beside a SMILES is read from it.
readoutKind: Minimum inhibitory concentration
Respond numerically, and do not add a unit to the figure.

Request - read-out Minimum inhibitory concentration | tested on Serratia marcescens clinical strains | compound CC[C@@H](C)[C@@H](NC(=O)[C@@H](Cc1c[nH]c2ccccc12)NC(=O)[C@H](N)CCCCN)C(=O)N[C@@H](C(=O)N[C@H](Cc1c[nH]c2ccccc12)C(=O)N[C@H](CCCNC(=N)N)C(=O)N[C@H](Cc1c[nH]c2ccccc12)C(=O)N[C@H](CCCNC(=N)N)C(=O)N[C@H](Cc1ccccc1)C(=O)N[C@H](CCCCN)C(=O)N[C@H](CCCNC(=N)N)C(=O)O)C(C)C [Chain201D] (H-[dK][dW][dI][dV][dW][dR][dW][dR][dF][dK][dR]-OH) 128
